Data origin: patent US20250340623A1

- TESTED_ON: alpha-synuclein fibrils (UniProt P37840 1-140)
- TEST_DESCRIPTION: SPR, captured mAb
READOUT_LABEL: pKd
Just so you know, pKd here is -log10 of the concentration in molar units; reply with that number alone.

Task item: May I ask what pKd has been recorded for ACI-8033-6402E2-Ab2 (antibody, V domains shown, mouse hybridoma mAb; VH/VL only; also called 6402E2E4) VH: EVQLQHSGPDLVKPGASVKISCKASGYTFTDYYMNWVKQSHGKSLEWIGDINPNNGDTTYNQKFKGRATLTVDKSSSTAYMELRSLTSEDSAVYYCARSGSNYYAMDSWGQGTSVTVSS VL: DIVMSQSPSSLAVSAGERVTMSCKSSQSLFNSRTRKNYLAWYQQKPGQSPKLLIYWASTRESGVPDRFTGSGSGTDFSLNISSVQAEDLAVYYCKQSYDLWTFGGGTKLEIK ?
Reply: 6.87
